molecular target: Signal peptidase I (Escherichia coli K-12, UniProt P00803)
Sequence (P00803 whole entry): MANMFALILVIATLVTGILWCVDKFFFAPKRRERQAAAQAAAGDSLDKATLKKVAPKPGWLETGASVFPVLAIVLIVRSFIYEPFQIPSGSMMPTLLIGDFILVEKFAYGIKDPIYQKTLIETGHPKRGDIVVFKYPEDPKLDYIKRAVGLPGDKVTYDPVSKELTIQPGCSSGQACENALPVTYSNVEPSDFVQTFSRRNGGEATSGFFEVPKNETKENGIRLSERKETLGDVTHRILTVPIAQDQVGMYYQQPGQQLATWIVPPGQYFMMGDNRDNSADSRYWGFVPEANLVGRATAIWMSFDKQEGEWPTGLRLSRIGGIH
Residues, ends and D or L forms follow the SMILES beside them. *: point of attachment. Decanoyl = CCCCCCCCCC(=O)*
Value Type: pIC50
API: returns pIC50 as number; meaning -log10 of concentration in mol/L.

Specify pIC50 for CCCCCCCCCC(=O)N1CCC[C@H]1C(=O)N[C@H](C(=O)N[C@@H](C)C(=O)N[C@@H](CC(N)=O)C(=O)N[C@@H](C)C=O)[C@@H](C)O (Decanoyl-PTANA-aldehyde) , system Signal peptidase I (Escherichia coli K-12, UniProt P00803).
4.87

---

tested on: Staphylococcus aureus; test: Inhibition of Staphylococcus aureus type I signal peptidase SpsB-mediated processing of internally quenched fluorescent synthetic peptide substrate at 200 uM
Residues, ends and D or L forms follow the SMILES beside them. *: point of attachment. Decanoyl = CCCCCCCCCC(=O)*
Catalogue of compounds with associated inhibition
// note: answer is a bare numeric in %

INSERT INTO measurements (compound, tested_system, value_type, unit_of_measurement, endpoint_result) VALUES
  ('CC[C@H](C)[C@H](NC(=O)[C@H](CCCCN)NC(=O)[C@H](CO)NC(=O)[C@@H]1CCCN1C(=O)[C@H](C)NC(=O)[C@H](CCCCN)NC(=O)[C@H](C)NC(=O)[C@@H](NC(=O)[C@@H]1CCCN1C(=O)[C@@H](NC(=O)[C@@H](N)CC(C)C)[C@@H](C)O)[C@@H](C)O)C(=O)N[C@@H](CC(=O)O)C(=O)N[C@@H](CC(=O)O)C(=O)O (H-LTPTAKAPSKIDD-OH)', 'Staphylococcus aureus', 'inhibition', '%', 21.6);

Determine from records and report inhibition for CCCCCCCCCC(=O)N[C@@H](CC(C)C)C(=O)N[C@H](C(=O)N1CCC[C@H]1C(=O)N[C@H](C(=O)N[C@@H](C)C(=O)N[C@@H](CCCCN)C(=O)N[C@@H](C)C(=O)N1CCC[C@H]1C(=O)N[C@@H](CO)C(=O)N[C@@H](CCCCN)C(=O)N[C@H](C(=O)N[C@@H](CC(=O)O)C(=O)O)[C@@H](C)CC)[C@@H](C)O)[C@@H](C)O (Decanoyl-LTPTAKAPSKID-OH)
108

Determine from records and report inhibition for CCCCCCCCCC(=O)N[C@@H](CC(C)C)C(=O)N[C@H](C(=O)N1CCC[C@H]1C(=O)N[C@H](C(=O)N[C@@H](C)C(=O)N[C@@H](CCCCN)C(=O)N[C@@H](C)C(=O)N1CCC[C@H]1C(=O)N[C@@H](CO)C(=O)N[C@@H](CCCCN)C(=O)O)[C@@H](C)O)[C@@H](C)O (Decanoyl-LTPTAKAPSK-OH)
108

Determine from records and report inhibition for CCCCCCCCCC(=O)N[C@H](C(=O)N[C@@H](C)C(=O)N[C@@H](CCCCN)C(=O)N[C@@H](C)C(=O)N1CCC[C@H]1C(=O)N[C@@H](CO)C(=O)N[C@@H](CCCCN)C(=O)N[C@H](C(=O)N[C@@H](CC(=O)O)C(=O)N[C@@H](CC(=O)O)C(=O)O)[C@@H](C)CC)[C@@H](C)O (Decanoyl-TAKAPSKIDD-OH)
98

Determine from records and report inhibition for CCCCCCCCCC(=O)N[C@@H](C)C(=O)N[C@@H](CCCCN)C(=O)N[C@@H](C)C(=O)N1CCC[C@H]1C(=O)N[C@@H](CO)C(=O)N[C@@H](CCCCN)C(=O)N[C@H](C(=O)N[C@@H](CC(=O)O)C(=O)N[C@@H](CC(=O)O)C(=O)O)[C@@H](C)CC (Decanoyl-AKAPSKIDD-OH)
0

Determine from records and report inhibition for CCCCCCCCCC(=O)N[C@@H](CC(C)C)C(=O)N[C@H](C(=O)N1CCC[C@H]1C(=O)N[C@H](C(=O)N[C@@H](C)C(=O)N[C@@H](CCCCN)C(=O)N[C@@H](C)C(=O)N1CCC[C@H]1C(=O)N[C@@H](CO)C(=O)N[C@@H](CCCCN)C(=O)N[C@H](C(=O)O)[C@@H](C)CC)[C@@H](C)O)[C@@H](C)O (Decanoyl-LTPTAKAPSKI-OH)
107

Determine from records and report inhibition for CCCCCCCCCC(=O)N[C@H](C(=O)N1CCC[C@H]1C(=O)N[C@H](C(=O)N[C@@H](C)C(=O)N[C@@H](CCCCN)C(=O)N[C@@H](C)C(=O)N1CCC[C@H]1C(=O)N[C@@H](CO)C(=O)N[C@@H](CCCCN)C(=O)N[C@H](C(=O)N[C@@H](CC(=O)O)C(=O)N[C@@H](CC(=O)O)C(=O)O)[C@@H](C)CC)[C@@H](C)O)[C@@H](C)O (Decanoyl-TPTAKAPSKIDD-OH)
106

Determine from records and report inhibition for CCCCCCCCCC(=O)N[C@@H](CC(C)C)C(=O)N[C@H](C(=O)N1CCC[C@H]1C(=O)N[C@H](C(=O)N[C@@H](C)C(=O)N[C@@H](CCCCN)C(=O)N[C@@H](C)C(=O)N1CCC[C@H]1C(=O)N[C@@H](CO)C(=O)N[C@@H](CCCCN)C(=O)N[C@H](C(=O)N[C@@H](CC(=O)O)C(=O)N[C@@H](CC(=O)O)C(=O)O)[C@@H](C)CC)[C@@H](C)O)[C@@H](C)O (Decanoyl-LTPTAKAPSKIDD-OH)
107

Determine from records and report inhibition for CCCCCCCCCC(=O)N[C@@H](CC(C)C)C(=O)N[C@H](C(=O)N1CCC[C@H]1C(=O)N[C@H](C(=O)N[C@@H](C)C(=O)N[C@@H](CCCCN)C(=O)N[C@@H](C)C(=O)N1CCC[C@H]1C(=O)N[C@@H](CO)C(=O)O)[C@@H](C)O)[C@@H](C)O (Decanoyl-LTPTAKAPS-OH)
92.9

Determine from records and report inhibition for CCCCCCCCCC(=O)N1CCC[C@H]1C(=O)N[C@H](C(=O)N[C@@H](C)C(=O)N[C@@H](CCCCN)C(=O)N[C@@H](C)C(=O)N1CCC[C@H]1C(=O)N[C@@H](CO)C(=O)N[C@@H](CCCCN)C(=O)N[C@H](C(=O)N[C@@H](CC(=O)O)C(=O)N[C@@H](CC(=O)O)C(=O)O)[C@@H](C)CC)[C@@H](C)O (Decanoyl-PTAKAPSKIDD-OH)
106
